TESTED_TARGET: PD-1/PD-L1 (Homo sapiens, UniProt Q9NZQ7)
Construct: TVMV protease site linker (C)
Sequence (Q9NZQ7 18-239): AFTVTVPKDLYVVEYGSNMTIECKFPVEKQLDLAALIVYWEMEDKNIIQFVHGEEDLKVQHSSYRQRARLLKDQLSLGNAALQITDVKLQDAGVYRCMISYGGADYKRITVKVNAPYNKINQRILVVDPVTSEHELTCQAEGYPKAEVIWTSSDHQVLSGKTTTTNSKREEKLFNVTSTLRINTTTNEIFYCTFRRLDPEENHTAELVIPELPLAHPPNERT
PROTOCOL_SUMMARY: PD-1/PD-L1 Homogenous Time-Resolved Fluorescence (HTRF) binding assay
EXPERIMENTAL_PARAMETERS: PD-L1-His 10 nM, PD-1-Ig 20 nM
log10 of IC50: recorded values
Transform log10 | Measure IC50 | Unit nM

Some solved entries appear below for comparison.
MOLECULE	log10 of IC50
Cc1c(COc2cc(OCc3cncc(C#N)c3)c(CNCc3ncco3)cc2Cl)cccc1-c1cccc(OCCCN2CC[C@@H](O)C2)c1C [Example 2546]	0.26
CCc1csc(CNCc2cc(Cl)c(OCc3cccc(-c4cccc(OCC5CCCN(C)C5)c4Cl)c3C)cc2OCc2cncc(C#N)c2)n1 (stereo not drawn) [Example 2622]	0.92
Cc1c(COc2cc(OCc3cncc(C#N)c3)c(CNCc3cncs3)cc2Cl)cccc1-c1cccc(OC2CCN(C)CC2)c1Cl [Example 2046]	1.51

Look up PD-1/PD-L1 (Homo sapiens, UniProt Q9NZQ7) data: log10 of IC50 of Cc1c(COc2cc(OCc3cncc(C#N)c3)c(CN(C)Cc3ccncc3)cc2Cl)cccc1-c1cccc(OCCCN2CC[C@@H](O)C2)c1C [Example 2029] , then report it.
0.61

Look up PD-1/PD-L1 (Homo sapiens, UniProt Q9NZQ7) data: log10 of IC50 of Cc1c(COc2cc(OCc3cncc(C#N)c3)c(CN3CCCCC3c3cn[nH]c3)cc2Cl)cccc1-c1cccc(OCCCN2CC[C@@H](O)C2)c1C (stereo partly drawn) [Example 1011] , then report it.
1.24

Look up PD-1/PD-L1 (Homo sapiens, UniProt Q9NZQ7) data: log10 of IC50 of Cc1c(COc2cc(OCc3cncc(C#N)c3)c(CNCCc3nc4ccccc4n3C)cc2Cl)cccc1-c1cccc(OCC2CCCN(C)C2)c1Cl (stereo not drawn) [Example 2605] , then report it.
-0.22

Look up PD-1/PD-L1 (Homo sapiens, UniProt Q9NZQ7) data: log10 of IC50 of Cc1nc(CNCc2cc(Cl)c(OCc3cccc(-c4cccc(OCCCN5CC[C@@H](O)C5)c4C)c3C)cc2OCc2cncc(C#N)c2)no1 [Example 2540] , then report it.
0.49

Look up PD-1/PD-L1 (Homo sapiens, UniProt Q9NZQ7) data: log10 of IC50 of Cc1c(COc2cc(OCc3cncc(C#N)c3)c(CN3CCCC(c4ncc[nH]4)C3)cc2Cl)cccc1-c1cccc(OCCCN2CC[C@@H](O)C2)c1C (stereo partly drawn) [Example 1003] , then report it.
0.15

Look up PD-1/PD-L1 (Homo sapiens, UniProt Q9NZQ7) data: log10 of IC50 of Cc1c(COc2cc(OCc3cncc(C#N)c3)c(CNCCc3ncn[nH]3)cc2Cl)cccc1-c1cccc(OCCCN2CC[C@@H](O)C2)c1C [Example 2519] , then report it.
0.00

Look up PD-1/PD-L1 (Homo sapiens, UniProt Q9NZQ7) data: log10 of IC50 of Cc1c(COc2cc(OCc3cncc(C#N)c3)c(CNCc3ncc4ccccn34)cc2Cl)cccc1-c1cccc(OCC2CCCN(C)C2)c1Cl (stereo not drawn) [Example 2623] , then report it.
0.79

Look up PD-1/PD-L1 (Homo sapiens, UniProt Q9NZQ7) data: log10 of IC50 of Cc1c(COc2cc(OCc3cncc(C#N)c3)c(CNCc3cncnc3)cc2Cl)cccc1-c1cccc(OCC2CCCN(C)C2)c1Cl (stereo not drawn) [Example 2584] , then report it.
0.41
